Assay: The drug is tested on Coprococcus comes strain: ATCC27758 for biotransformation. The drug concentrations were measured before and after a 12-h incubation by liquid-chromatography-coupled mass spectrometry (LC–MS)
Assay type: ADME
Parameters: dose 2 uM, timepoint 0 vs 12 hours
Conditions: 2 µM
Non-standard residues stand in square brackets, D forms with d. Residues, ends and D or L forms follow the SMILES beside them. pGlu = O=C1CC[C@@H](C(=O)O)N1; Thz = O=C(O)[C@@H]1CSCN1
OBSERVABLE: Bacterial Biotransformation

- COMPOUND: "CN(C)CCOC(c1ccc(Cl)cc1)c1ccccn1.O=C(O)/C=C\\C(=O)O (stereo not drawn) [CARBINOXAMINE MALEATE]"
  OBSERVABLE: "Bacterial Biotransformation"
  VALUE OBSERVED: "Compound NOT metabolized"
- COMPOUND: "O=C1CC[C@@H](C(=O)N2CSC[C@H]2C(=O)O)N1 [PIDOTIMOD] ([pGlu]-[Thz]-OH)"
  OBSERVABLE: "Bacterial Biotransformation"
  VALUE OBSERVED: "Compound NOT metabolized"
- COMPOUND: "CCOc1ccccc1OCCN[C@H](C)Cc1ccc(OC)c(S(N)(=O)=O)c1.Cl [TAMSULOSIN HYDROCHLORIDE]"
  OBSERVABLE: "Bacterial Biotransformation"
  VALUE OBSERVED: "Compound NOT metabolized"
- COMPOUND: "CCN(CC)CCNC(=O)c1cc(Cl)c(N)cc1OC [METOCLOPRAMIDE]"
  OBSERVABLE: "Bacterial Biotransformation"
  VALUE OBSERVED: "Compound NOT metabolized"
- COMPOUND: "N=C(N)NC(=O)Cc1c(Cl)cccc1Cl"
  OBSERVABLE: "Bacterial Biotransformation"
  VALUE OBSERVED: "Compound NOT metabolized"
- COMPOUND: "C[C@]12C=CC(=O)C=C1CC[C@@H]1[C@@H]2C(=O)C[C@@]2(C)[C@H]1CC[C@]2(O)C(=O)CO"
  OBSERVABLE: "Bacterial Biotransformation"
  VALUE OBSERVED: "Compound NOT metabolized"
- COMPOUND: "CCN(CC)CCOCCOC(=O)C1(c2ccccc2)CCCC1.O=C(O)CC(O)(CC(=O)O)C(=O)O [CARBETAPENTANE CITRATE]"
  OBSERVABLE: "Bacterial Biotransformation"
  VALUE OBSERVED: "Compound metabolized"
- COMPOUND: "COc1ccc(CN2CCNCC2)c(OC)c1OC.Cl.Cl [TRIMETAZIDINE DIHYDROCHLORIDE]"
  OBSERVABLE: "Bacterial Biotransformation"
  VALUE OBSERVED: "Compound NOT metabolized"
- COMPOUND: "CC(C)(C)NC(=O)[C@H]1CC[C@H]2[C@@H]3CC[C@H]4NC(=O)C=C[C@]4(C)[C@H]3CC[C@]12C [FINASTERIDE]"
  OBSERVABLE: "Bacterial Biotransformation"
  VALUE OBSERVED: "Compound NOT metabolized"
- COMPOUND: "Cc1cn([C@H]2C[C@H](N=[N+]=[N-])[C@@H](CO)O2)c(=O)[nH]c1=O"
  OBSERVABLE: "Bacterial Biotransformation"
  VALUE OBSERVED: "Compound metabolized"
- COMPOUND: "COc1ccnc(C[S+]([O-])c2nc3ccc(OC(F)F)cc3[nH]2)c1OC (stereo not drawn)"
  OBSERVABLE: "Bacterial Biotransformation"
  VALUE OBSERVED: "Compound metabolized"
- COMPOUND: "Cc1ccc(NC(=O)c2ccc(CN3CCN(C)CC3)cc2)cc1Nc1nccc(-c2cccnc2)n1"
  OBSERVABLE: "Bacterial Biotransformation"
  VALUE OBSERVED: "Compound NOT metabolized"
- COMPOUND: "O=C1CC2(CCCC2)CC(=O)N1CCCCN1CCN(c2ncccn2)CC1"
  OBSERVABLE: "Bacterial Biotransformation"
  VALUE OBSERVED: "Compound NOT metabolized"
- COMPOUND: "CCC(=O)NCC[C@@H]1CCc2ccc3c(c21)CCO3"
  OBSERVABLE: "Bacterial Biotransformation"
  VALUE OBSERVED: "Compound NOT metabolized"
- COMPOUND: "CNC(=C[N+](=O)[O-])NCCSCc1csc(CN(C)C)n1"
  OBSERVABLE: "Bacterial Biotransformation"
  VALUE OBSERVED: "Compound NOT metabolized"
- COMPOUND: "Clc1ccc(Cn2c(CN3CCCC3)nc3ccccc32)cc1"
  OBSERVABLE: "Bacterial Biotransformation"
  VALUE OBSERVED: "Compound NOT metabolized"
- COMPOUND: "Cc1nc(-c2ccc(OCC(C)C)c(C#N)c2)sc1C(=O)O"
  OBSERVABLE: "Bacterial Biotransformation"
  VALUE OBSERVED: "Compound NOT metabolized"
- COMPOUND: "CCCCCCOC(=O)/N=C(/N)c1ccc(NCc2nc3cc(C(=O)N(CCC(=O)OCC)c4ccccn4)ccc3n2C)cc1.CS(=O)(=O)O [DABIGATRAN ETEXILATE MESYLATE]"
  OBSERVABLE: "Bacterial Biotransformation"
  VALUE OBSERVED: "Compound NOT metabolized"
- COMPOUND: "COc1ccc2c3c1O[C@H]1C[C@@H](O)C=C[C@@]31CCN(C)C2"
  OBSERVABLE: "Bacterial Biotransformation"
  VALUE OBSERVED: "Compound NOT metabolized"
- COMPOUND: "CCCN1C[C@H](CSC)C[C@@H]2c3cccc4[nH]cc(c34)C[C@H]21.CS(=O)(=O)O [PERGOLIDE MESYLATE]"
  OBSERVABLE: "Bacterial Biotransformation"
  VALUE OBSERVED: "Compound NOT metabolized"
- COMPOUND: "CCN(C(C)=O)c1cccc(-c2ccnc3c(C#N)cnn23)c1"
  OBSERVABLE: "Bacterial Biotransformation"
  VALUE OBSERVED: "Compound NOT metabolized"
- COMPOUND: "CN(C)CCC=C1c2ccccc2C=Cc2ccccc21"
  OBSERVABLE: "Bacterial Biotransformation"
  VALUE OBSERVED: "Compound NOT metabolized"
- COMPOUND: "N#Cc1ccc2c(c1)N(CCCN1CCC(O)CC1)c1ccccc1S2"
  OBSERVABLE: "Bacterial Biotransformation"
  VALUE OBSERVED: "Compound NOT metabolized"
- COMPOUND: "COc1ccc2[nH]c([S+]([O-])Cc3ncc(C)c(OC)c3C)nc2c1 (stereo not drawn)"
  OBSERVABLE: "Bacterial Biotransformation"
  VALUE OBSERVED: "Compound metabolized"
- COMPOUND: "CC(C(=O)O)c1ccc2c(c1)Cc1cccnc1O2 (stereo not drawn)"
  OBSERVABLE: "Bacterial Biotransformation"
  VALUE OBSERVED: "Compound metabolized"
- COMPOUND: "Cc1nc(Nc2ncc(C(=O)Nc3c(C)cccc3Cl)s2)cc(N2CCN(CCO)CC2)n1.O"
  OBSERVABLE: "Bacterial Biotransformation"
  VALUE OBSERVED: "Compound NOT metabolized"
- COMPOUND: "CN1CC(=O)N2[C@H](c3ccc4c(c3)OCO4)c3[nH]c4ccccc4c3C[C@@H]2C1=O"
  OBSERVABLE: "Bacterial Biotransformation"
  VALUE OBSERVED: "Compound NOT metabolized"
- COMPOUND: "CNC(=C[N+](=O)[O-])NCCSCc1ccc(CN(C)C)o1"
  OBSERVABLE: "Bacterial Biotransformation"
  VALUE OBSERVED: "Compound metabolized"
- COMPOUND: "CC(CCc1ccccc1)NCC(O)c1ccc(O)c(C(N)=O)c1 (stereo not drawn)"
  OBSERVABLE: "Bacterial Biotransformation"
  VALUE OBSERVED: "Compound NOT metabolized"
- COMPOUND: "CCOc1ccc2nc(S(N)(=O)=O)sc2c1 [ETHOXZOLAMIDE]"
  OBSERVABLE: "Bacterial Biotransformation"
  VALUE OBSERVED: "Compound metabolized"
- COMPOUND: "CC(=O)OCC(=O)[C@@]1(OC(C)=O)[C@@H](C)C[C@H]2[C@@H]3C[C@H](F)C4=CC(=O)C=C[C@]4(C)[C@@]3(F)[C@@H](O)C[C@@]21C [DIFLORASONE DIACETATE]"
  OBSERVABLE: "Bacterial Biotransformation"
  VALUE OBSERVED: "Compound NOT metabolized"
- COMPOUND: "CC(C)(C)NC[C@H](O)COc1ccccc1C1CCCC1.CC(C)(C)NC[C@H](O)COc1ccccc1C1CCCC1.O=S(=O)(O)O [PENBUTOLOL SULFATE]"
  OBSERVABLE: "Bacterial Biotransformation"
  VALUE OBSERVED: "Compound NOT metabolized"
- COMPOUND: "CN1CCc2c(c3ccccc3n2Cc2ccccc2)C1.CN1CCc2c(c3ccccc3n2Cc2ccccc2)C1.O=S(=O)(O)c1cccc2c(S(=O)(=O)O)cccc12"
  OBSERVABLE: "Bacterial Biotransformation"
  VALUE OBSERVED: "Compound NOT metabolized"

Ref: ChEMBL document CHEMBL5303573
